Hello, the source for this data is ChEMBL document CHEMBL1201862, in case you need it.

# GI50 per record follows
# Test system: MCF7
# method_notes: NCI tumour cell line growth inhibition, 48 h
The source made the active and inactive calls. Rule as the data show it: active = GI50 up to about 1.1 µM and inactive = higher.

Some compounds with recorded GI50:
compound	readout_value
COc1ccc(-n2nnc(C(N)=O)c2O)cc1	> 100 µM (inactive)
C/C(=C/CC[C@](C)(OC1OC(CO)C(O)C(O)C1O)[C@H]1CC[C@]2(C)[C@@H]1CC[C@@H]1[C@@]3(C)CC[C@H](O)C(C)(C)[C@@H]3C[C@H](O)[C@]12C)CO (stereo partly specified)	34.8 µM (inactive)
C=C1C(=O)O[C@@H]2[C@H]1C[C@H](I)[C@@]1(C)CC[C@H](O1)[C@](C)(I)CCCC(C)[C@@H]2O (stereo partly specified)	2.29 µM (inactive)

Value of measured GI50 for the entry `Cc1ccc(-c2nc(N/N=C/c3ccc(O)cc3)c3ccccc3n2)cc1` : 10.2 µM (inactive)

Value of measured GI50 for the entry COC(=O)c1ccccc1C1CN=NC12Cc1ccc(C)cc1C2=O (stereo unspecified) : 72.8 µM (inactive)

Value of measured GI50 for the entry `Cc1cc2c(cc1C)[n+]([O-])c(C(=O)N1CCN(c3ccc([N+](=O)[O-])cc3)CC1)c(C)[n+]2[O-]` : > 100 µM (inactive)

Value of measured GI50 for the entry CC(=O)CC12NC(=O)N(C)N=C1N(C)C(=O)N(C)C2=O (stereo unspecified) : 41.8 µM (inactive)

Value of measured GI50 for the entry `O=C1CC2(CCNCC2)C(=O)N1N1CCOCC1` : > 100 µM (inactive)

Value of measured GI50 for the entry CC1(C)CC[C@]2(C(=O)O)CC[C@]3(C)[C@H](C(=O)C=C4[C@@]5(C)C=C(C#N)C(=O)C(C)(C)[C@@H]5CC[C@]43C)[C@@H]2C1 [BARDOXOLONE] : 0.265 µM (active)

Value of measured GI50 for the entry `Cc1ccc(/C=C/C(=O)c2cc(CN(C)C)c(O)c(CN(C)C)c2)cc1` : 17.3 µM (inactive)

Value of measured GI50 for the entry COc1ccc(NC(C)=O)cc1N1C(=O)/C(=C\c2cc(OC)c(OC)c(OC)c2)S(=O)(=O)C1c1ccccc1 (stereo unspecified) : 33 µM (inactive)
